molecular target: Dimer of Gag-Pol polyprotein [489-587] (Human immunodeficiency virus 1, UniProt P12497); construct: 489-587; test: Protease Inhibition Assay; details: pH 5; 30 °C
Provide the recorded Ki for the entries that follow.
The response must be a number in nM with no trailing unit.

IN: Which measured Ki value corresponds to "CC(=O)c1cccc(CN2[C@H](COc3ccccc3)[C@H](O)[C@@H](O)[C@@H](COc3ccccc3)N(Cc3cccc(C(C)=O)c3)S2(=O)=O)c1" ?
OUT: 59

IN: Which measured Ki value corresponds to "COC(Cc1cccc(CN2[C@H](COc3ccccc3)[C@H](O)[C@@H](O)[C@@H](COc3ccccc3)N(Cc3cccc(CC(OC)OC)c3)S2(=O)=O)c1)OC" ?
OUT: 540

IN: Which measured Ki value corresponds to "O=C(CN1[C@H](COc2ccccc2)[C@H](O)[C@@H](O)[C@@H](COc2ccccc2)N(Cc2ccc(-c3cccs3)cc2)S1(=O)=O)Nc1nccs1" ?
OUT: 1800

IN: Which measured Ki value corresponds to "O=S1(=O)N(Cc2cccc(-c3cccs3)c2)[C@H](COc2ccccc2)[C@H](O)[C@@H](O)[C@@H](COc2ccccc2)N1Cc1cccc(-c2cccs2)c1" ?
OUT: 2200

IN: Which measured Ki value corresponds to "O=C(CN1[C@H](COc2ccccc2)[C@H](O)[C@@H](O)[C@@H](COc2ccccc2)N(Cc2cccc(-c3cccs3)c2)S1(=O)=O)Nc1nccs1" ?
OUT: 140

IN: Which measured Ki value corresponds to "O=C(CN1[C@H](COc2ccccc2)[C@H](O)[C@@H](O)[C@@H](COc2ccccc2)N(Cc2cccc(I)c2)S1(=O)=O)Nc1nccs1" ?
OUT: 510

IN: Which measured Ki value corresponds to "CN1[C@H](COc2ccccc2)[C@H](O)[C@@H](O)[C@@H](COc2ccccc2)N(C)S1(=O)=O" ?
OUT: 710
